Measurement target: TYK2 (Homo sapiens, UniProt P29597)
Sequence (P29597 whole entry): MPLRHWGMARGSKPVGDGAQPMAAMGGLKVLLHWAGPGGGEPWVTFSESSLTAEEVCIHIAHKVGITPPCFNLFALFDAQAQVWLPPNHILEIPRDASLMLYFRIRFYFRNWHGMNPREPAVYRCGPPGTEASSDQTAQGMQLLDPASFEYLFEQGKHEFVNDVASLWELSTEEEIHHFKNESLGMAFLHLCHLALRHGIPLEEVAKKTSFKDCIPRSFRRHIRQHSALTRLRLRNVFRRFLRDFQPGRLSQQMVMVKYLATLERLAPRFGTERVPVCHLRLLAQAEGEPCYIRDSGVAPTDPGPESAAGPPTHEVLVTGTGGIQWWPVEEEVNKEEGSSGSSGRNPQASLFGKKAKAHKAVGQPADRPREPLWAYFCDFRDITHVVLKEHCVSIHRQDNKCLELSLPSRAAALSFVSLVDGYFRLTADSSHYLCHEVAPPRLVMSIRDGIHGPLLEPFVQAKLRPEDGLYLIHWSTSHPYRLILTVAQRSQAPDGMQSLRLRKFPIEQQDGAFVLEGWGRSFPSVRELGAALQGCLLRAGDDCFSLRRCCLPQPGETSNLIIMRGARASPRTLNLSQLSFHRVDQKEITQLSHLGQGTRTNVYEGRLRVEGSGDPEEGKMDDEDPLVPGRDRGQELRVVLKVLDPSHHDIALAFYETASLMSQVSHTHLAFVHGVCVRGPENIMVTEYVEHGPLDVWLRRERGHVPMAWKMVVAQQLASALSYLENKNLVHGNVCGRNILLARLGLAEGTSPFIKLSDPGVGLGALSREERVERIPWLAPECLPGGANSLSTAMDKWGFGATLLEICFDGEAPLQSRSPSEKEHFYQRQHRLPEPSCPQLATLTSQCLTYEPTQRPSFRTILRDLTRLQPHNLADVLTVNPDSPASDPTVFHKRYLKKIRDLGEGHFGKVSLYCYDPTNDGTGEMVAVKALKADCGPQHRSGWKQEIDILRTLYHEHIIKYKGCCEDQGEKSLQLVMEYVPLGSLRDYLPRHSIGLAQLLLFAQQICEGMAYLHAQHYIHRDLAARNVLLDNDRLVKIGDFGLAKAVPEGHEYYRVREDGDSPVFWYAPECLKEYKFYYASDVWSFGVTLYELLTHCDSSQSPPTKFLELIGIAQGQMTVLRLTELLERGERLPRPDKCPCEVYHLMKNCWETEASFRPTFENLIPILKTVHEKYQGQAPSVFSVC
Assay details: TYK2 degradation MSD assay in human PBMC cells
Assay type: cell-based
Design: endogenous in cells; host or cells: human PBMC
Conditions: 4 to 24 hours incubation, read-out: TYK2 MSD DC50 rating in human PBMC
Kindly state DC50 for each of the entries shown.

Qu. Return the recorded DC50 value; entry: CNc1cc(Nc2cccc(N3CCC(CN4CC5(C4)CN(c4ccc(-c6ccc7c(c6)n(C)c(=O)n7C6CCC(=O)NC6=O)cc4)C5)CC3)c2OC)nn2c(C(=O)N[C@@H]3C[C@@H]3F)cnc12 (stereo partly shown) [Example K623]
Ans. > 100 nM

Qu. Return the recorded DC50 value; entry: Cn1c(=O)n(C2CCC(=O)NC2=O)c2ccc(CCCCCCCCCCCCNc3cc(Nc4cccn(-c5ccccn5)c4=O)nn4c(C(=O)N[C@@H]5C[C@@H]5F)cnc34)cc21 (stereo partly shown) [Example K211]
Ans. > 100 nM

Qu. Return the recorded DC50 value; entry: CNC(=O)c1cnc(Nc2ccc(CN3CC(C)(Cc4ccc5c(c4)n(C)c(=O)n5C4CCC(=O)NC4=O)C3)cn2)cc1Nc1cccc(-c2ncc(F)cn2)c1OC (stereo not shown) [Example K142]
Ans. 1 to 10 nM

Qu. Return the recorded DC50 value; entry: CNc1cc(Nc2cccn(-c3cccc(C(=O)NCCCCc4cccc5c4n(C)c(=O)n5C4CCC(=O)NC4=O)c3)c2=O)nn2c(C(=O)N[C@@H]3C[C@@H]3F)cnc12 (stereo partly shown) [Example K220]
Ans. > 100 nM

Qu. Return the recorded DC50 value; entry: Cn1c(=O)n(C2CCC(=O)NC2=O)c2cccc(C3CN(C4CCN(Cc5ccc(-c6cccc(Nc7ccc8ncc(C(=O)NC9CC9)n8n7)c6)nc5)CC4)C3)c21 (stereo not shown) [Example K403]
Ans. > 100 nM

Qu. Return the recorded DC50 value; entry: CNc1cc(Nc2cccc(-c3ccc(CN4CCN(c5ccc(-c6ccc7c(c6)n(C)c(=O)n7C6CCC(=O)NC6=O)cn5)C(=O)C4)cn3)c2)nn2c(C(=O)N[C@@H]3C[C@@H]3F)cnc12 (stereo partly shown) [Example K455]
Ans. > 100 nM

Qu. Return the recorded DC50 value; entry: CNc1cc(N2CCc3c(-c4cc(N5CCN(CC6CCN(c7cccc8c7n(C)c(=O)n8C7CCC(=O)NC7=O)CC6)CC5)ccn4)cccc32)nn2c(C(=O)NC3CC3F)cnc12 (stereo not shown) [Example K656]
Ans. > 100 nM

Qu. Return the recorded DC50 value; entry: CNC(=O)c1cnc(Nc2ccc(N3CCN(c4ccc5c(c4)n(C)c(=O)n5C4CCC(=O)NC4=O)CC3)cn2)cc1Nc1cccc(-c2ncc(F)cn2)c1OC (stereo not shown) [Example K196]
Ans. < 1 nM

Qu. Return the recorded DC50 value; entry: Cn1c(=O)n(C2CCC(=O)NC2=O)c2ccc(-c3ccc(N4CCN(Cc5ccc(-c6cccc(Nc7nn8c(C(=O)N[C@@H]9C[C@@H]9F)cnc8c8c7OCCN8)c6)nc5)CC4)cc3)cc21 (stereo partly shown) [Example K557]
Ans. > 100 nM

Qu. Return the recorded DC50 value; entry: CNc1cc(Nc2cccn(-c3ccc(C(=O)N4CCN(CC#Cc5ccc6c(c5)n(C)c(=O)n6C5CCC(=O)NC5=O)CC4)cn3)c2=O)nn2c(C(=O)N[C@@H]3C[C@@H]3F)cnc12 (stereo partly shown) [Example K417]
Ans. > 100 nM
